Hello, the source for this data is patent US8211935B2, in case you need it.

test-system: CaV2.2 (Homo sapiens, UniProt Q00975)
Construct: expressed in transfected cells; host or cells: HEK293
Sequence (Q00975 whole entry): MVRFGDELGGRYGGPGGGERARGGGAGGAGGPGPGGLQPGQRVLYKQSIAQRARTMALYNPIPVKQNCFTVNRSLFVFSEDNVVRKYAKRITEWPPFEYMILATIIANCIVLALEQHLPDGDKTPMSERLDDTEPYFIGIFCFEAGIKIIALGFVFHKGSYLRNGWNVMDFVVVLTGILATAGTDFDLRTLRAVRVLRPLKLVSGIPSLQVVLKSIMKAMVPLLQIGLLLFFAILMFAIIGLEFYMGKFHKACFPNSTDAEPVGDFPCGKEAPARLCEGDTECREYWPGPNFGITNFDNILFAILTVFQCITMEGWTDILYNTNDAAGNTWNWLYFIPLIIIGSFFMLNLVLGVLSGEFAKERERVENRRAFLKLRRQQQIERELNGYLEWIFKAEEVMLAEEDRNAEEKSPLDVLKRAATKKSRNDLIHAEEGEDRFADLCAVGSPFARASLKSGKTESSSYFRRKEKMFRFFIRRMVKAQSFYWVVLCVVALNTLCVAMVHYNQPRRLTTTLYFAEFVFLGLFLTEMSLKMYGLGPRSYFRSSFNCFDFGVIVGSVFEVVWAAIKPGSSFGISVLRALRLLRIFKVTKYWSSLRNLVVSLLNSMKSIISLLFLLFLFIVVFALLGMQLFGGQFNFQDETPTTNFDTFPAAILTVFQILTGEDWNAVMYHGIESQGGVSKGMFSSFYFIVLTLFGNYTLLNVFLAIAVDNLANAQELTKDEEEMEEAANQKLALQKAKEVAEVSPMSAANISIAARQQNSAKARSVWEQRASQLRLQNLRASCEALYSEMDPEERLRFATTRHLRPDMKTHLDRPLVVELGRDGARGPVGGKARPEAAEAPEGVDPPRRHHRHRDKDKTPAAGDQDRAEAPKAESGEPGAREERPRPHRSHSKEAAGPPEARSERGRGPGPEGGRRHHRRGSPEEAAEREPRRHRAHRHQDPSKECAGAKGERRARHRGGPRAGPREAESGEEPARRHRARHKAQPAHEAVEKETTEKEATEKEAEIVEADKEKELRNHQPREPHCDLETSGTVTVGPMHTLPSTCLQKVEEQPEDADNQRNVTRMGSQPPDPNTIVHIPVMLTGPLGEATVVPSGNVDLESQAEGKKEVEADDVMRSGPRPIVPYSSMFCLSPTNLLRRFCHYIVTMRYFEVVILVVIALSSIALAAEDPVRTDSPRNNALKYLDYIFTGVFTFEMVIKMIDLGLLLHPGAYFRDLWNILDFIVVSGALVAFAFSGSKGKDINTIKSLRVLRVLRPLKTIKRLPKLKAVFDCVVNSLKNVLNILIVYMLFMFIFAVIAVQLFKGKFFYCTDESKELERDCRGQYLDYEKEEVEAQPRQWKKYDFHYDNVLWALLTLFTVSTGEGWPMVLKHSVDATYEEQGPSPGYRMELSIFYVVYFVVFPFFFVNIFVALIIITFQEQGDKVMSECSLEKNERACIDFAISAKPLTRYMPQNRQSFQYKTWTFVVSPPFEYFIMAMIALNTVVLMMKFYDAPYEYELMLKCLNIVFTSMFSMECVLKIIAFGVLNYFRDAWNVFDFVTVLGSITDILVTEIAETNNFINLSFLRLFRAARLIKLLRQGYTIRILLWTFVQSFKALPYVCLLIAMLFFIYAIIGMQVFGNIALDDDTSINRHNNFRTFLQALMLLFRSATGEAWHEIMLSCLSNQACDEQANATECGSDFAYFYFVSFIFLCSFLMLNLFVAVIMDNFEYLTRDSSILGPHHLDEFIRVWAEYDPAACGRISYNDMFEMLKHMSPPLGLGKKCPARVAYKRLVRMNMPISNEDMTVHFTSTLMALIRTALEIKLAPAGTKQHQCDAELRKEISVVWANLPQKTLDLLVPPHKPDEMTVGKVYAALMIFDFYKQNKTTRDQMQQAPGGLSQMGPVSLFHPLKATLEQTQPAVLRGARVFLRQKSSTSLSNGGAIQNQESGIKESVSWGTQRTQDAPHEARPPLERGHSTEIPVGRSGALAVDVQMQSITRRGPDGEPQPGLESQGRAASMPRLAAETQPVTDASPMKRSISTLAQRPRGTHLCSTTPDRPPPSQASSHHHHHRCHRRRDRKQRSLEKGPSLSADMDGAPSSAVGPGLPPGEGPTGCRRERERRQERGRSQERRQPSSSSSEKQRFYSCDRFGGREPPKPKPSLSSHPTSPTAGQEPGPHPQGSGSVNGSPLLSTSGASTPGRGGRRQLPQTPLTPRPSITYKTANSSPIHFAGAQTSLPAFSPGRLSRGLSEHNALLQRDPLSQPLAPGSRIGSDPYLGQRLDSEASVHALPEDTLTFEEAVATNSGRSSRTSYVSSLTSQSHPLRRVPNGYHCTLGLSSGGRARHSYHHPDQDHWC
Sequence (P54284 whole entry partner): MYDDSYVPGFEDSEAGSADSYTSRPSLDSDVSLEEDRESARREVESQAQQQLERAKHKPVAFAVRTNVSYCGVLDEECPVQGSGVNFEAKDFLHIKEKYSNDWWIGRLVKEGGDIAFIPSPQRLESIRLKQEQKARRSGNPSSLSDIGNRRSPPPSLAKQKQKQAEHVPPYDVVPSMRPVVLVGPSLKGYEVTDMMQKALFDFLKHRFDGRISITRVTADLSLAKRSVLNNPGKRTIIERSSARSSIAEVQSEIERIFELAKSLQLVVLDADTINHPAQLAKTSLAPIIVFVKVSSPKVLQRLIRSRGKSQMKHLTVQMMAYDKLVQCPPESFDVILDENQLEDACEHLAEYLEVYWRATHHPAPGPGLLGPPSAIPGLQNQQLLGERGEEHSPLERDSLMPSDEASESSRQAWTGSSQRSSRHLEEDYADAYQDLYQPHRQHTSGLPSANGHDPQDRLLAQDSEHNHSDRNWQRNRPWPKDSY
Sequence (P54289 25-946 partner limits assumed): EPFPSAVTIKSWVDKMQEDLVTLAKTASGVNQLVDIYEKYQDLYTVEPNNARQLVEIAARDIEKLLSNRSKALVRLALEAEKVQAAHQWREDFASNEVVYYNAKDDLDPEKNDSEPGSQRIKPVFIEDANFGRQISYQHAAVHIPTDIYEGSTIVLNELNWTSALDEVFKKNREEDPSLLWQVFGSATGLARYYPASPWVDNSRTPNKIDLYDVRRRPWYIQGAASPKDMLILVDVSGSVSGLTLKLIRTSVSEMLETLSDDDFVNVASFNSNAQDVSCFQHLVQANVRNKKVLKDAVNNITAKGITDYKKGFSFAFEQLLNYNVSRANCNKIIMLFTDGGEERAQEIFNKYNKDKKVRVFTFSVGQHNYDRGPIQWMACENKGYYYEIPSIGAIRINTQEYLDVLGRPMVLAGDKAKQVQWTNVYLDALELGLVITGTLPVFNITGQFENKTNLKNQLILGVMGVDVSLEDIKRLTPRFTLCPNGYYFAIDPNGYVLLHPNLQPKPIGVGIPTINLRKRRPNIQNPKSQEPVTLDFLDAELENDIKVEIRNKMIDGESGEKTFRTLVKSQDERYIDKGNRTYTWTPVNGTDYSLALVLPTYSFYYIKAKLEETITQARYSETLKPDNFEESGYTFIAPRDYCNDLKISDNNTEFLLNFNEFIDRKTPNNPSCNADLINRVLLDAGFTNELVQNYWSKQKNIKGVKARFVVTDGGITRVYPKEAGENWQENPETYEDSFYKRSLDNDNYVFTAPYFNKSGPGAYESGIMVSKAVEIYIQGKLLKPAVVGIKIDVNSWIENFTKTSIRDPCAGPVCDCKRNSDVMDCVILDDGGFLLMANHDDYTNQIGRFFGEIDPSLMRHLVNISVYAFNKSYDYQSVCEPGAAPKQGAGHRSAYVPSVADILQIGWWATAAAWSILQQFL
Sequence (P54289 947-1103 partner limits assumed): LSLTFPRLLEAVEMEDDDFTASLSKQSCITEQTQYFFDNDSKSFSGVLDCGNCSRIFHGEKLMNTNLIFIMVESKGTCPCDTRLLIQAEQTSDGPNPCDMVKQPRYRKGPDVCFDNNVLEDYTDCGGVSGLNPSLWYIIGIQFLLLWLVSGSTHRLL
assay-method-text: VIPR optical membrane potential assay with electrical stimulation
Type: cell-based
setup-conditions: Table 3, biological assay data; read-out: IC50
pIC50: −log10 of the molar value.
Can you tell me pIC50 for the items I'm about to list?

Data request: So what does the record say about pIC50 for Cc1c(C(=O)N2CCCC2)oc2ccc(S(=O)(=O)N3CCOCC3)cc12 ?
Data returned: > 4.70

Data request: Look up pIC50: CC1CC(C)CN(S(=O)(=O)c2ccc3c(c2)cc(C(=O)NCc2ccccc2)n3S(=O)(=O)c2ccccc2)C1 (centres unmarked)
Data returned: > 5.30

Data request: Which pIC50 value belongs to O=C(NC1CC1)c1cc2cc(NS(=O)(=O)C3CC3)ccc2[nH]1 ?
Data returned: > 4.70

Data request: # get_value(readout='pIC50', item= Cc1c(C(=O)N(C)Cc2ccccc2)[nH]c2ccc(S(=O)(=O)N3CC(C)CC(C)C3)cc12 (centres unmarked) )
Data returned: > 5.30

Data request: Name the recorded pIC50 for CC1CC(C)CN(S(=O)(=O)c2ccc3[nH]c(C(=O)NCCc4ccccc4)cc3c2)C1 (centres unmarked) .
Data returned: > 5.30

Data request: # input compound: CCOC(=O)N1CCN(C(=O)c2[nH]c3ccc(S(=O)(=O)N4CCCCCC4)cc3c2C)CC1 ; wanted: its pIC50
Data returned: 4.70 to 5.30

Data request: Value lookup for pIC50; key = O=C(c1cc2cc(S(=O)(=O)N3CCCCCC3)ccc2o1)N1CCCCC1
Data returned: 4.70 to 5.30

Data request: What value of pIC50 has been reported for the following compound? COc1ccc(CNS(=O)(=O)c2ccc3oc(C(=O)NC4CC4)c(C)c3c2)cc1
Data returned: > 4.70

Data request: Quick one: pIC50 of CC1CCN(S(=O)(=O)c2ccc3[nH]c(C(=O)NCC4CCCO4)cc3c2)CC1 (centres unmarked) ?
Data returned: > 5.30

Data request: Could you tell me which pIC50 is on file for CC1CC(C)CN(S(=O)(=O)c2ccc3oc(C(=O)NC4CCCCC4)cc3c2)C1 (centres unmarked) ?
Data returned: > 5.30

Data request: I would be grateful if you could share the reported pIC50 for CCN(CC)S(=O)(=O)c1ccc2oc(C(=O)NC3CCC(C)CC3)c(C)c2c1 (centres unmarked) .
Data returned: 4.70 to 5.30

Data request: Recorded pIC50 for Cc1c(C(=O)N2CCC(C)CC2)oc2ccc(S(=O)(=O)N3CCCCCC3)cc12 , please?
Data returned: > 5.30

Data request: Reported pIC50, compound Cc1c(C(=O)NCCCN2CCOCC2)oc2ccc(S(=O)(=O)N3CC(C)CC(C)C3)cc12 (centres unmarked) : ____
Data returned: > 5.30

Data request: Can you share its pIC50? I mean this compound: Cc1c(C(=O)N2CC(C)CC(C)C2)oc2ccc(S(=O)(=O)N3CCCC(C)C3)cc12 (centres unmarked)
Data returned: > 5.30

Data request: Which pIC50 value belongs to Cc1c(C(=O)N2CCCC2)oc2ccc(S(=O)(=O)N3CC(C)CC(C)C3)cc12 (centres unmarked) ?
Data returned: > 5.30

Data request: For the compound O=C(NCCCc1ccccc1)c1cc2cc(S(=O)(=O)N3CCCCCC3)ccc2[nH]1 , what pIC50 is on record?
Data returned: > 5.30

Data request: Field request: pIC50 | item: CC1CC(C)CN(S(=O)(=O)c2ccc3[nH]c(C(=O)NC4CC4)cc3c2)C1 (centres unmarked)
Data returned: > 5.30

###

For each entry below, report its pIC50 value.
test-system: CaV2.2 (Homo sapiens)
Construct: expressed in transfected cells; host or cells: HEK293
assay-method-text: VIPR optical membrane potential assay with electrical stimulation
Type: cell-based
setup-conditions: Table 3, biological assay data; read-out: IC50
pIC50: −log10 of the molar value.

Data request: Which pIC50 value belongs to CCN(CC)C(=O)c1cc2cc(S(=O)(=O)N3CCCCCC3)ccc2o1 ?
Data returned: 4.70 to 5.30

Data request: Quick one: pIC50 of CCOC(=O)N1CCN(C(=O)c2cc3cc(S(=O)(=O)N4CC(C)CC(C)C4)ccc3[nH]2)CC1 (centres unmarked) ?
Data returned: > 5.30

Data request: Tell me the measured pIC50 of CNC(=O)c1[nH]c2ccc(S(=O)(=O)N3CC(C)CC(C)C3)cc2c1C (centres unmarked) , please.
Data returned: > 5.30

Data request: Using the record for CC1CCN(S(=O)(=O)c2ccc3oc(C(=O)N4CCCCC4)cc3c2)CC1 , report its pIC50.
Data returned: > 5.30

Data request: Entry Cc1c(C(=O)NC(C)C)oc2ccc(S(=O)(=O)N3CC(C)CC(C)C3)cc12 (centres unmarked) has what pIC50?
Data returned: > 5.30

Data request: Which pIC50 is reported for this compound? CC1CC(C)CN(S(=O)(=O)c2ccc3c(c2)cc(C(=O)N2CCN(C)CC2)n3S(=O)(=O)c2ccccc2)C1 (centres unmarked)
Data returned: 4.70 to 5.30

Data request: What measured pIC50 goes with CC1CCN(S(=O)(=O)c2ccc3[nH]c(C(=O)N4CCCCC4)cc3c2)CC1 ?
Data returned: > 5.30

Data request: Tell me the measured pIC50 of CCOC(=O)N1CCN(C(=O)c2cc3cc(S(=O)(=O)N4CCC(C)CC4)ccc3o2)CC1 , please.
Data returned: > 4.70

###

Would you mind telling me the reported pIC50 of each entry?
test-system: CaV2.2 (Homo sapiens, UniProt Q00975)
Construct: expressed in transfected cells; host or cells: HEK293
assay-method-text: VIPR optical membrane potential assay with electrical stimulation
Format: cell-based
setup-conditions: Table 3, biological assay data; read-out: IC50
pIC50: −log10 of the molar value.

Data request: Lab note: need pIC50 with CaV2.2 (Homo sapiens, UniProt Q00975) for entry Cc1c(C(=O)NC2CC2)oc2ccc(S(=O)(=O)N3CCCCC3)cc12 , please look it up.
Data returned: > 4.70

Data request: Return pIC50 measured with CaV2.2 (Homo sapiens, UniProt Q00975) given this compound: Cc1ccc(CNS(=O)(=O)c2ccc3oc(C(=O)NC4CC4)c(C)c3c2)cc1
Data returned: > 4.70

Data request: Form field: pIC50 recorded for CCN(CC)C(=O)c1cc2cc(S(=O)(=O)N3CC(C)CC(C)C3)ccc2o1 (centres unmarked) with CaV2.2 (Homo sapiens, UniProt Q00975) (enter value)
Data returned: > 5.30

Data request: Quick check: pIC50 on CaV2.2 (Homo sapiens, UniProt Q00975), item Cc1c(C(=O)NCC2CCCO2)[nH]c2ccc(S(=O)(=O)N3CCCCCC3)cc12 (centres unmarked) ?
Data returned: 4.70 to 5.30

Data request: API: value(readout=pIC50, system=CaV2.2 (Homo sapiens, UniProt Q00975)) for record Cc1c(C(=O)N2CCCCC2)[nH]c2ccc(S(=O)(=O)N3CCCCCC3)cc12
Data returned: 4.70 to 5.30

Data request: Report pIC50 for Cc1c(C(=O)N2CCN(C)CC2)oc2ccc(S(=O)(=O)N3CCC(C)CC3)cc12 tested on CaV2.2 (Homo sapiens, UniProt Q00975).
Data returned: 4.70 to 5.30

Data request: Test system CaV2.2 (Homo sapiens, UniProt Q00975); read-out pIC50; what value for CC1CCN(S(=O)(=O)c2ccc3[nH]c(C(=O)N4CCCCCC4)cc3c2)CC1 ?
Data returned: 4.70 to 5.30

Data request: Request body: readout pIC50, system CaV2.2 (Homo sapiens, UniProt Q00975), query Cc1c(C(=O)N2CCCCCC2)oc2ccc(S(=O)(=O)N3CCCC(C)C3)cc12 (centres unmarked) . Return the value.
Data returned: > 5.30
